Known self-aminoacylation of a selection of sequences
- Tested on: biotinyl-Val-oxazolone
- test.description: self-aminoacylation, catalytic enhancement (BVO) (fold over background); higher = more active; k-Seq, kA / k0A0; sequences stand for … in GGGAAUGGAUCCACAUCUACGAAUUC…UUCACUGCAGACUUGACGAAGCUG
Fewer inactive variants are shown than the library holds.
In your answer, state the number alone without any accompanying words.

{"sequence.entry": "AAGUUUACUAAUACUCGCAAG [Fam3.1 aminoacylation ribozyme variant]", "target": "biotinyl-Val-oxazolone", "test.result": 1.18}

// returns reported self-aminoacylation for input AACUUUGCAAAUAGUCGCAAG [Fam3.1 aminoacylation ribozyme variant]
1.94

Also check AUUACCCGAGUCAUCGAGUGA [Fam2.1 aminoacylation ribozyme variant]
4.68

Check AGGUUUGCUAAUAGUCGCGAG [Fam3.1 aminoacylation ribozyme variant] too.
1.78

Try the sequence CCACACUGCCAGCAAUCGGUC [Fam1B.1 aminoacylation ribozyme variant]
1.58

Try this sequence next: AACUUUGCUAAUUGUCGCAAG [Fam3.1 aminoacylation ribozyme variant]
2.39

Next record, please: CUACUUCAAACAACCGGGCUG [Fam1A.1 aminoacylation ribozyme variant]
1.22

Also need AUUACCCUGACCAUCGAGUGA [Fam2.1 aminoacylation ribozyme variant] , thanks.
2.95

Check CGACACUUCAAGCAAUCGGUG [Fam1B.1 aminoacylation ribozyme variant] too.
2.27

Field entry: AAGGUUGCUAAUAGUCGGAAG [Fam3.1 aminoacylation ribozyme variant]
0.973

Thanks! And AUUCACCUAAGUCGUCGGGUG [Fam2.2 aminoacylation ribozyme variant] ?
1.87

Also check AUUGCCCUGGUCAUCGAGUAA [Fam2.1 aminoacylation ribozyme variant]
4.02

What about CCACAGUUCAAGAAAUCGGUC [Fam1B.1 aminoacylation ribozyme variant] ?
1.18

Next sequence up: CUUACCCUGGUCAUCGAUUGA [Fam2.1 aminoacylation ribozyme variant]
0.929

Another: AUUCACCUAGGUUAUCGGCUG [Fam2.2 aminoacylation ribozyme variant]
1.57

What do you have for CUUACCCUGGUCCUCGAGUGA [Fam2.1 aminoacylation ribozyme variant] ?
3.36

Field entry: AAGUUUCCUAAUAGUCGAAAG [Fam3.1 aminoacylation ribozyme variant]
1.14

Now give it for CCACUUCAAACAAUCGUUCUG [Fam1A.1 aminoacylation ribozyme variant] too.
0.674
